Target protein (sequence): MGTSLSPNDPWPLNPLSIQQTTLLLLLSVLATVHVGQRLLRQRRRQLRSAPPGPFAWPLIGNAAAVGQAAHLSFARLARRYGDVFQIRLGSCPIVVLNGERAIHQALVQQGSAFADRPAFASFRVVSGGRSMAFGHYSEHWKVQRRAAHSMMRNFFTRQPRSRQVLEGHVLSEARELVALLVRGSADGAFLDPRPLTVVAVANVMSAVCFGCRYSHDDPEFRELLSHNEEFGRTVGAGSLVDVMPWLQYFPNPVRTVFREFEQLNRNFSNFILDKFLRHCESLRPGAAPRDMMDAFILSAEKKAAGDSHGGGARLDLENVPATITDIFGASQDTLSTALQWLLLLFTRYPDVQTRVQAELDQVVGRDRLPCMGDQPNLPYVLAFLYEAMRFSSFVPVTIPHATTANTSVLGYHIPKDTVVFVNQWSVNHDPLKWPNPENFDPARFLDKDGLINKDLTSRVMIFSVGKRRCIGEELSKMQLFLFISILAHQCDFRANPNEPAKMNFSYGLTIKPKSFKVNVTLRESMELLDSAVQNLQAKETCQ

{"Molecular String": "COc1ccc(/C=C/c2c(OC)ccc(OC)c2OC)c(OC)c1", "IC50": "3.3 nM"}
{"Molecular String": "COc1ccc(/C=C/c2ccccc2OC)c(OC)c1", "IC50": "15.5 nM"}
{"Molecular String": "COc1ccc(/C=C/c2cc(OC)c(OC)c(OC)c2)c(OC)c1", "IC50": "71 nM"}
{"Molecular String": "COc1ccc(/C=C/c2ccc(OC)cc2OC)c(OC)c1", "IC50": "8.81 nM"}
{"Molecular String": "COc1cccc(/C=C/c2ccc(OC)cc2OC)c1", "IC50": "15.2 nM"}
{"Molecular String": "COc1ccc(/C=C/c2cccc(OC)c2OC)c(OC)c1", "IC50": "60.3 nM"}
{"Molecular String": "COc1ccc(/C=C/c2c(OC)cccc2OC)c(OC)c1", "IC50": "1.77 nM"}
{"Molecular String": "COc1ccc(/C=C/c2ccc(OC)cc2OC)cc1", "IC50": "57.5 nM"}
